Test system: H1975 cells
Experiment: Anti-proliferative activity, H1975
Format: cell-based
Conditions: Homo sapiens, NCI-H1975, read-out: H1975 EC50
RESULT_TYPE: pEC50
Worth noting: pEC50 values are minus log10 of concentrations stated in mol/L.

Query: Entry CCN(CCCOc1ccc2c(Nc3cc(CC(=O)Nc4cccc(F)c4)n[nH]3)ncnc2c1)CCOP(=O)(O)O , system H1975 cells: what pEC50 was measured?
Result: 6.41

###

Biological target: FLT3 (Homo sapiens, UniProt P36888)
Construct: FLT3 kinase catalytic domain (residues Tyr567-Ser993); made in house; host or cells: Sf9 insect cells (baculovirus, pBac-PAK8-GST-FLT3-KD)
Sequence (P36888 567-993): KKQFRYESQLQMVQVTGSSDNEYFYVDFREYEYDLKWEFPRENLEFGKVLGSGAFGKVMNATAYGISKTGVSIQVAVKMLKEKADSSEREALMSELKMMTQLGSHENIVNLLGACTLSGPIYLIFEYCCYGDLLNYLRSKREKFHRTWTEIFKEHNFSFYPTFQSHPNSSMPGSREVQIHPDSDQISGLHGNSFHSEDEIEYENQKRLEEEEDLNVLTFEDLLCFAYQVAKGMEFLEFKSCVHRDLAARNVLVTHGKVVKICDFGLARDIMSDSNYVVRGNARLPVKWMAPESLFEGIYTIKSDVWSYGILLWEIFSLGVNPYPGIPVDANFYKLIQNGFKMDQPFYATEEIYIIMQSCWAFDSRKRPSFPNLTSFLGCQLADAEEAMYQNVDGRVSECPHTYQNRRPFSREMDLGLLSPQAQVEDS
Assay: FLT3 kinase inhibition assay (Kinase-Glo)
Type: biochemical
Conditions: mean of at least two independent experiments, within ±15%
In this section we review reported IC50 values for a set of molecules.
Numeric answer only, unit nM assumed.

Worked set:
O=C(Nc1cccc(Cl)c1)Nc1ncc(CCNc2ncnc3ccccc23)s1 :: 1410
COCCOc1ccc2ncnc(NCCc3cnc(NC(=O)Nc4cccc(Cl)c4)s3)c2c1 :: 1290
Cc1ccc(Cl)cc1NC(=O)Nc1ncc(CCNc2ncnc3cc(OCCCN(C)C)ccc23)s1 :: 20.5
CN(C)CCCOc1ccc2c(NCCc3cnc(NC(=O)Nc4ccccc4)s3)ncnc2c1 :: 94

Query: Query the reported IC50 for FLT3 (Homo sapiens, UniProt P36888); item: COc1ccc(Cl)cc1NC(=O)Nc1ncc(CCNc2ncnc3cc(OCCCN(C)C)ccc23)s1
Result: 16

Query: State its IC50 on FLT3 (Homo sapiens, UniProt P36888): COc1cc2ncnc(NCCc3cnc(NC(=O)Nc4cccc(Cl)c4)s3)c2cc1OC
Result: 127

Query: Form field - read-out: IC50; system: FLT3 (Homo sapiens, UniProt P36888); submitted item: COc1cccc(NC(=O)Nc2ncc(CCNc3ncnc4cc(OCCCN(C)C)ccc34)s2)c1
Result: 98

Query: Notebook entry, FLT3 (Homo sapiens, UniProt P36888) assay: IC50 of CN(C)CCOc1ccc2c(NCCc3cnc(NC(=O)Nc4cccc(Cl)c4)s3)ncnc2c1 = ?
Result: 58

Query: Any idea what IC50 came out for COCCOc1cc2ncnc(NCCc3cnc(NC(=O)Nc4cccc(Cl)c4)s3)c2cc1OCCOC on FLT3 (Homo sapiens, UniProt P36888)?
Result: 98

Query: Please tell me: IC50 of COCCOc1ccc2c(NCCc3cnc(NC(=O)Nc4cccc(Cl)c4)s3)ncnc2c1 , system FLT3 (Homo sapiens, UniProt P36888)?
Result: 103
